- System tested: GST-LXRβ ligand-binding domain (Homo sapiens, UniProt P55055, DUP175-175)
- Construct: amino acids 156-461; NP009052
- Sequence (P55055 with tags, fused parts or gaps DUP175-175): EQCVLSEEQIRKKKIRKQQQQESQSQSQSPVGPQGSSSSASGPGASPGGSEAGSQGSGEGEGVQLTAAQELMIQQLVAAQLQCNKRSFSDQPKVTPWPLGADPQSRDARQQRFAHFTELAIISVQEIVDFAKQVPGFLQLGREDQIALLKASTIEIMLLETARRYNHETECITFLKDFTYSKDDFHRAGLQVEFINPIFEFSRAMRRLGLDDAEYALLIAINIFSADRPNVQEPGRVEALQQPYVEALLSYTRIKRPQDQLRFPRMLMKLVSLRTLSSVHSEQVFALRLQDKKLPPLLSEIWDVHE
- Assay comment: TR-FRETβ activity assay (LXRβ-LBD / NCoA3 coactivator peptide, prestimulated with 24(S)-25-epoxycholesterol)
- Measurement parameters: 1 μM 24(S)-25-epoxycholesterol as prestimulating agonist; read-out: FRETβ activity range (EC50)
Measured EC50 values are reported for all entries that follow.
Value kind: EC50

1. Cc1cc(C)c(S(=O)(=O)N(Cc2ccc(-c3cccc(S(=O)(=O)CC(=O)O)c3)cc2)Cc2ccccc2C(F)(F)F)c(C)c1    100 to 1000 nM
2. COC(=O)CS(=O)(=O)c1cccc(-c2ccc(CN(Cc3ccc(C(F)(F)F)o3)S(=O)(=O)c3c(C)cc(C)cc3C)cc2)c1    < 100 nM
3. Cc1cc(C)c(S(=O)(=O)N(Cc2ccc(C(F)(F)F)o2)Cc2ccc(-c3cccc(C(C)(C)C(=O)O)c3)cc2Cl)c(C)c1    < 100 nM
4. Cc1cc(C)c(S(=O)(=O)N(Cc2ccc(N3CCCC(CC(=O)O)C3=O)cc2)Cc2ccc(C(F)(F)F)o2)c(C)c1 (stereo not shown)    > 10000 nM
5. Cc1cc(C)c(S(=O)(=O)N(Cc2ccc(-c3cccc(S(=O)(=O)CC(=O)O)c3)cc2)Cc2ccc(F)cc2Cl)c(C)c1    100 to 1000 nM
6. Cc1ccc2ccccc2c1S(=O)(=O)N(Cc1ccc(-c2cccc(C(C)(C)C(=O)O)c2)cc1)Cc1ccc(C(F)(F)F)o1    < 100 nM
7. CCOC(=O)Cc1cccc(-c2ccc(CN(Cc3ccc(C(F)(F)F)o3)S(=O)(=O)c3c(C)cc(C)cc3C)cc2)c1    > 10000 nM

Each recorded value in this set is attributed to patent US20200115357A1.
